# test system: T1, recombinant human PD-L2 (human PD-L2 antigen) (human, UniProt Q9BQ51 20-219, limits assumed)
# T1 construct: The Biacore analyte and the ELISA antigen are only called human PD-L2 antigen / recombinant hPD-L2; Whole entry named; also called hPD-L2; recombinant hPD-L2
# T1 sequence (looked up): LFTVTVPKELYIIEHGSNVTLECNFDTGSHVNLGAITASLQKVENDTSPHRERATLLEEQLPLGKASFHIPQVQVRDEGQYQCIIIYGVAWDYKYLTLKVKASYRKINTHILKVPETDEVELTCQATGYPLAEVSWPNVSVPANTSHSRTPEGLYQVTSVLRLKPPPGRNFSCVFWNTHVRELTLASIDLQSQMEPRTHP
# procedure text: SPR (Biacore 8K), single cycle kinetics, antibody in culture supernatant, human PD-L2 antigen
Reported values of koff for individual entries
// return numeric value only (unit: s⁻¹, not printed)

Worked examples, 5 binders total:
VH1/VK0 (antibody, V domains shown, hIgG1 backbone, CHO expressed) VH: QVQLVQSGAELKKPGSSVKVSCKASGYAFSNYFIEWVKQPPGKGLEWIGLNIPGSGGSNYAEKFKGRATITADKSTSTAYMELSSLTSEDSAVYFCARRRLPPDWYFDVWGQGTTVTVSS VL: DVVMTQTPLSLPVSLGDQASISCRSSQSLVHSDGNTYLHWYLQKPGQSPKLLIYKVSNRFSGVPDRFSGSGSGTDFTLKISRVEAEDLGVYFCSQSTHVPWTFGGGTKLEIK ... 0.000109
VH3/VK1 (antibody, V domains shown, hIgG1 backbone, CHO expressed) VH: QVQLVQSGAEVKKPGSSVKVSCKASGYAFSNYFIEWVKQPPGKGLEWIGLNIPGSGGSNYAEKFKGRVTITADKSTSTAYMELSSLRSEDSAVYFCARRRLPPDWYFDVWGQGTTVTVSS VL: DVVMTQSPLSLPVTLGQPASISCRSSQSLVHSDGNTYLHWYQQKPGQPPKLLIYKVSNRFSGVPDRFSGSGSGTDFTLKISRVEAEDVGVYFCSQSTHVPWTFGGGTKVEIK ... 0.000128
VH4/VK3 (antibody, V domains shown, hIgG1 backbone, CHO expressed) VH: QVQLVQSGAEVKKPGSSVKVSCKASGYAFSNYFIEWVKQPPGKGLEWIGLNIPGSGGSNYAEKFKGRVTITADKSTSTAYMELSSLRSEDTAVYYCARRRLPPDWYFDVWGQGTTVTVSS VL: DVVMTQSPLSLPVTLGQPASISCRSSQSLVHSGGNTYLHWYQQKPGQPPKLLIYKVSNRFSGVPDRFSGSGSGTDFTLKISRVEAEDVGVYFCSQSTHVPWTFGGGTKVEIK ... 0.000466
VH8/VK2 (antibody, V domains shown, hIgG1 backbone, CHO expressed) VH: QVQLVQSGAEVKKPGSSVKVSCKASGYAFSNYFIEWVKQPPGKGLEWIGLNIPGSGGSNYAEKFKGRATITADKSTSTAYMELSSLRSEDTAVYYCARRRLPPDWYFDVWGQGTTVTVSS VL: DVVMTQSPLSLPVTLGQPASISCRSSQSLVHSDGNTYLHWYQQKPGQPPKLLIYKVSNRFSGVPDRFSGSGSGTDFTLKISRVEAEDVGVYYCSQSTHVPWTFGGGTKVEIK ... 0.000121
VH3/VK3 (antibody, V domains shown, hIgG1 backbone, CHO expressed) VH: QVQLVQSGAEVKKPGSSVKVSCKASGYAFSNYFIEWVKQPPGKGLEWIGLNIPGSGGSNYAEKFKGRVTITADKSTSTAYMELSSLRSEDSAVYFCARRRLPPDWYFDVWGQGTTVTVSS VL: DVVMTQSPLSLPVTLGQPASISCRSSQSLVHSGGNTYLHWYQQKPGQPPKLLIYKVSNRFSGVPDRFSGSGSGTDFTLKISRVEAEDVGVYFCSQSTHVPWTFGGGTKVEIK ... 0.000497

Please find the next binder below.
Query: Suppose we examine the binder VH1/VK2 (antibody, V domains shown, hIgG1 backbone, CHO expressed) VH: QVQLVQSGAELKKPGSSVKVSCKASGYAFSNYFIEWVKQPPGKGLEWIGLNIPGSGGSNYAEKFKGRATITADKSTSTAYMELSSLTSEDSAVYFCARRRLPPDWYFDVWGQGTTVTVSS VL: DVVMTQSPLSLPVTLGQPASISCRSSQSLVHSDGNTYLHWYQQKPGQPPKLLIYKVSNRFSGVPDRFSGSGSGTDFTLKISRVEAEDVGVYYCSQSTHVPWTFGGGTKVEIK ; what koff value has been reported?
Reply: 0.000116
